Reported IC50 values are given for each entry in this list.
Tested on: MCF7 breast cancer cells
Test: Cell viability assay (MTT), MCF7
Format: cell-based, human
Conditions: 72 hrs treatment, 1 to 10 μM tested, MTT, ± SD; read-out: Observed IC50 for MCF7 breast cancer cells
Procedure: Experiments were performed using different cancer cell-lines, which were supplied by the American Type Culture Collection (ATCC), Rockville, Md., USA, and maintained in the recommended culturing media. […] After additional 72 hours of incubation at 37° C. under 5% CO2 atmosphere, the cell were then collected and evaluated using MTT assay to assess the cell viability by using the method mentioned above. […]
Please respond with the number in µM and leave the unit unwritten.

Record summary for CCc1c(Cl)c(O)c(Cl)c(O)c1C(=O)O[C@@H]1[C@@H](O)[C@@H](OC)[C@@H](OC/C2=C\C=C\CC(O)/C(C)=C/C(CC)C(O[C@@H]3OC(C)(C)[C@H]4OC(c5ccc(N(CC)CC)cc5OC)O[C@@H]4[C@@H]3OC(=O)C(C)C)/C(C)=C/C(C)=C/CC(C(C)O)OC2=O)O[C@H]1C (some centres unmarked) [TB7] : reported IC50 = 6.19

Record summary for CCc1c(Cl)c(O)c(Cl)c(O)c1C(=O)O[C@@H]1[C@@H](O)[C@@H](OC)[C@@H](OC/C2=C\C=C\CC(O)/C(C)=C/C(CC)C(O[C@@H]3OC(C)(C)[C@H]4OC(c5ccc(N(CC)CC)cc5)O[C@@H]4[C@@H]3OC(=O)C(C)C)/C(C)=C/C(C)=C/CC(C(C)O)OC2=O)O[C@H]1C (some centres unmarked) [TB6, 4-N,N-diethylaminobenzylidene acetal] : reported IC50 = 5.98

###

Reported IC50 values are given for each entry in this list.
Test system: MCF7 breast cancer cells
Assay: Cell viability assay (MTT), MCF7
Type: cell-based, human
Details: 72 hrs treatment, 1 to 10 μM tested, MTT, ± SD; read-out: Observed IC50 for MCF7 breast cancer cells
Please respond with the number in µM and leave the unit unwritten.

CCc1c(Cl)c(O)c(Cl)c(O)c1C(=O)O[C@@H]1[C@@H](O)[C@@H](OC)[C@@H](OC/C2=C\C=C\CC(O)/C(C)=C/C(CC)C(O[C@@H]3OC(C)(C)[C@H]4OC(c5cc(C(C)(C)C)c(O)c(C(C)(C)C)c5)O[C@@H]4[C@@H]3OC(=O)C(C)C)/C(C)=C/C(C)=C/CC(C(C)O)OC2=O)O[C@H]1C (stereo partly drawn)
5.78
CCc1c(Cl)c(O)c(Cl)c(O)c1C(=O)O[C@@H]1[C@@H](O)[C@@H](OC)[C@@H](OC/C2=C\C=C\CC(O)/C(C)=C/C(CC)C(O[C@@H]3OC(C)(C)[C@H]4OC(c5ccccc5Cl)O[C@@H]4[C@@H]3OC(=O)C(C)C)/C(C)=C/C(C)=C/CC(C(C)O)OC2=O)O[C@H]1C (stereo partly drawn)
6.81

Okay, now this compound:
Record summary for CCc1c(Cl)c(O)c(Cl)c(O)c1C(=O)O[C@@H]1[C@@H](O)[C@@H](OC)[C@@H](OC/C2=C\C=C\CC(O)/C(C)=C/C(CC)C(O[C@@H]3OC(C)(C)[C@H]4OC(c5ccccc5C)O[C@@H]4[C@@H]3OC(=O)C(C)C)/C(C)=C/C(C)=C/CC(C(C)O)OC2=O)O[C@H]1C (stereo partly drawn) : reported IC50 = 7.06
